Recorded values, source a melting point compilation (Tetko et al.; mined from patent text by program, amines drawn as free bases though some values may be those of a salt).

MEASURE_NAME: melting point

> print(dat)
                                   molecule   assay.result
1      O=c1c2ccccc2sn1CCN1CC=C(c2ccccc2)CC1    90 to 92 °C
2  COc1ccc(CCC(C)NC(Cc2ccccc2C)=NC#N)cc1 (stereo unspecified)  103 to 104 °C
3                CC(=O)Nc1ccc(C(C)(C)C)cc1F  164 to 165 °C
4  O=C(NCC(=O)N1c2ccccc2N(Cc2ccccc2)C(=O)[C@H]2CCC[C@H]21)c1ccncc1 (relative stereo)  196 to 199 °C
5  O=C1O[C@@H](CO)CN1c1ccc(N2C[C@@H]3C[C@H]2CS3)c(F)c1  156 to 157 °C
6  CSC(Oc1cc2cc(Br)cnc2cc1F)C(=O)NC(C)(C)C (stereo unspecified)  144 to 145 °C
7  CCCCCS(=O)(=O)NC(=O)/C=C/c1cc(OCCCC)nn1Cc1ccc(C(F)(F)F)cc1  159 to 160 °C
8  CC1=CC(c2cccc(F)c2)C2=C(CCCC2=O)N1 (stereo unspecified)  216 to 218 °C

Please supply the value of reported melting point for the item COC(=O)[C@H]1NC(=O)[C@H]1NC(=O)Cc1ccccc1 (relative stereo) 176 to 180 °C

Please supply the value of reported melting point for the item O=C1c2ccccc2COc2cc(C=NO)ccc21 170 to 172 °C

Please supply the value of reported melting point for the item CN1C(=O)CN(c2cccc(Br)c2)NC1=O 165 to 166 °C

Please supply the value of reported melting point for the item CCCOc1nc(N)nc(-c2ccccc2)c1-c1ccc(=O)n(C(C)C)n1 128 to 129 °C

Please supply the value of reported melting point for the item CN(C(=O)OCc1ccccc1)c1ccc(OCC(=O)N[C@@H](CC(N)=O)C(=O)N[C@@H](Cc2ccccc2)[C@H](O)C(=O)N2CCC[C@H]2C(=O)NC(C)(C)C)cc1 98 to 100 °C

----------
Reported melting point values for a set of compounds

> print(dat)
                                   compound   measure.name   assay.result
1  Cc1ccc(C#Cc2cnc(-c3ccc(C(F)(F)F)cc3)s2)s1  melting point  107 to 108 °C
2  COCC(O)Cc1ccc(-c2ccc3cc(C(=O)O)ccc3c2)cc1C12CC3CC(CC(C3)C1)C2 (stereo unspecified)  melting point  240 to 242 °C
3  COC(=O)C1(C(F)CCCCOc2ccc(Cl)cc2)CO1 (stereo unspecified)  melting point    76 to 78 °C

Please supply the value of reported melting point for the item CCCCCCCCCCc1nc(N(C)C)nc(OC)c1Br 45 to 46 °C

Please supply the value of reported melting point for the item CCOCCOc1cc(-n2nc(C)c(Cl)c2C)c(F)cc1C#N 86 °C

Please supply the value of reported melting point for the item CSc1ccc(CC(=O)C(=O)O)cc1 165 to 167 °C

----------
Reported melting point values for a set of compounds

Guide cases for melting point, answers given:
> print(dat)
                                   compound   assay.result
1            COC(=O)c1cc2nc(C)oc2cc1C(=O)OC  121 to 124 °C
2  CCCCc1ccc(C(=O)N[C@H](Cc2ccc(C(F)(F)F)cc2)[C@@H](O)c2ccc(F)cc2)cc1 (racemic)  171 to 172 °C
3             O=C(O)c1csnc1-c1cc(S)cc(Cl)c1  150 to 160 °C
4  CC(=O)N[C@@H](C)COc1ccc2nc(-c3cc(F)c(OCC4CC4)c(F)c3)oc2c1F  146 to 147 °C
5  CCOC(=O)/C=C/c1cccc(C2CCCC2)c1OCCc1ccccc1    78 to 80 °C

Please supply the value of reported melting point for the item CCSc1nc(Nc2ccc(F)cc2F)c(C(=O)OC)cc1F 113 to 114 °C

Please supply the value of reported melting point for the item NC(=O)N(O)CCNC(=O)c1csc(-c2ccccc2)n1 188 to 192 °C

Please supply the value of reported melting point for the item CC1(C)CCC(C)(C)c2cc(C#Cc3ccc(C(N)=O)cc3)ccc21 220 to 223 °C

Please supply the value of reported melting point for the item O=C1CCC(N2Cc3c(OCc4ccc(CN5CCN(c6ccccn6)C(=O)C5)cc4)cccc3C2=O)C(=O)N1 (stereo not given) 224 to 226 °C

Please supply the value of reported melting point for the item CCn1ncc2c(Cl)c(C=O)cnc21 89 to 90 °C
